Tested on: PfAP2-EXP AP2 domain (GST-tagged)
Test Summary: gcPBM binding intensity (ln(normalized median fluorescence intensity)); higher = stronger DNA binding
Whole data set: some 25,000 sequences, median “ln(normalized median fluorescence intensity)” near 8.6, cut for the highest 2% near 10. For the sample, the highest values were picked, then their nearest neighbours and some sequences at random.
Mark y for reported gcPBM binding intensity (ln) of 9 or greater; mark n for anything smaller.

- Sequence Data: "AAGTACATACATAAAACACACACATATATATATATA [CACACA_site8541]"
  Target Entity: "PfAP2-EXP AP2 domain (GST-tagged)"
  Assigned Category: "y"
- Sequence Data: "TATACACATATATAAACACACAAAAAAAAAAAAAAA [CACACA_site7041]"
  Target Entity: "PfAP2-EXP AP2 domain (GST-tagged)"
  Assigned Category: "n"
- Sequence Data: "TAGATACATAAACACACACACACATACATATATACA [CACACA_site9139]"
  Target Entity: "PfAP2-EXP AP2 domain (GST-tagged)"
  Assigned Category: "n"
- Sequence Data: "TAAAAAAAAAAAAAAAGTACACACATACATATAAAT [XGTACX_site3752]"
  Target Entity: "PfAP2-EXP AP2 domain (GST-tagged)"
  Assigned Category: "n"

Proceed to the following item.
State whether the measured gcPBM binding intensity (ln) reaches 9, counting equality as reaching it, for AAAAAAAAAAAAAGTACACACATACATATAAATATA [CACACA_site8533] n

====

Tested on: PfAP2-EXP AP2 domain (GST-tagged)
Test Summary: gcPBM binding intensity (ln(normalized median fluorescence intensity)); higher = stronger DNA binding
In all, about 25,000 sequences were measured (“ln(normalized median fluorescence intensity)”: median about 8.6, highest 2% from about 10 on). The list comes from a sample in which the highest values are over-represented; it also holds close analogues and randomly drawn sequences.
Measured Parameter: gcPBM binding intensity (ln)
Give the figure only, with no unit attached.

- Sequence Data: "GCGTTATTAAATAATTCACACACATATATATATATA [CACACA_site8711]"
  Target Entity: "PfAP2-EXP AP2 domain (GST-tagged)"
  Measured Parameter: "gcPBM binding intensity (ln)"
  Recorded Result: 10

Recall the reported gcPBM binding intensity (ln) of GTTATTAAATAATTCACACACATATATAAATAAATA [CACACA_site7129] on PfAP2-EXP AP2 domain (GST-tagged) and write it down. 8.31

Recall the reported gcPBM binding intensity (ln) of ATATAATTAAAATGCTCACACACATAAAAAAAAATT [CACACA_site2148] on PfAP2-EXP AP2 domain (GST-tagged) and write it down. 8.43

Recall the reported gcPBM binding intensity (ln) of TTTATACTTTCAAAATGTACATATATATATATATAT [XGTACX_site6241] on PfAP2-EXP AP2 domain (GST-tagged) and write it down. 10.2

====

Examples of sequences with documented gcPBM binding intensity (ln) follow.
Tested on: PfAP2-EXP AP2 domain (GST-tagged)
Test Summary: gcPBM binding intensity (ln(normalized median fluorescence intensity)); higher = stronger DNA binding
Over roughly 25,000 sequences, “ln(normalized median fluorescence intensity)” has its median near 8.6; the highest 2% begin near 10. The entries come from a sample that favours the highest values as a whole.
Give the figure only, with no unit attached.

Worked cases, answers included:
- Sequence Data: "AAGTTTTTTTTTAACACACACATAATAAAATAAATA [CACACA_site446]"
  gcPBM binding intensity (ln): 8.46
- Sequence Data: "TATATATATGTATGATGTACATATATGCATATATAT [XGTACX_site3399]"
  gcPBM binding intensity (ln): 8.54
- Sequence Data: "AAAATAAATATAAAATGTACTTATATATATATATAT [XGTACX_site7803]"
  gcPBM binding intensity (ln): 9.97
- Sequence Data: "TACAATTCGTAATACACACACATATAAATAAATATT [CACACA_site7720]"
  gcPBM binding intensity (ln): 8.44
- Sequence Data: "ATTATATATACATATACACACATACGTACATACATA [CACACA_site9194]"
  gcPBM binding intensity (ln): 8.8
- Sequence Data: "TTTTATGTTCTTAATGCACACTTATAAGTATCTTAT [CACACA_site4895]"
  gcPBM binding intensity (ln): 9.07
- Sequence Data: "TTTTCTACATCTTGTTGTACGAAAAATAAAAAAAAT [XGTACX_site4620]"
  gcPBM binding intensity (ln): 8.72
- Sequence Data: "TATATAGTAATTTATTCACACAATTGGCACACCTCA [CACACA_site4679]"
  gcPBM binding intensity (ln): 8.71
- Sequence Data: "TTTATTTTGACAGATTGTACACTTTATACATGTTTT [XGTACX_site2356]"
  gcPBM binding intensity (ln): 8.8
- Sequence Data: "ATCTCTTATATATTCACACACATATATATAATTATA [CACACA_site1502]"
  gcPBM binding intensity (ln): 8.85

Retrieve gcPBM binding intensity (ln) measured for AAAAATAAAATAAAGAAGGAAAATAAAAAAATAAGG [CACACA_negctrl_site1811] and print it. 8.79

Retrieve gcPBM binding intensity (ln) measured for AATATAATATACATATGTACATATATATATATATAT [XGTACX_site8218] and print it. 10

Retrieve gcPBM binding intensity (ln) measured for TTCATAATAAAAAGGTGTACATATATATATATATAT [XGTACX_site2829] and print it. 10.3

====

Examples of sequences with documented gcPBM binding intensity (ln) follow.
Tested on: PfAP2-EXP AP2 domain (GST-tagged)
Test Summary: gcPBM binding intensity (ln(normalized median fluorescence intensity)); higher = stronger DNA binding
In all, about 25,000 sequences were measured (“ln(normalized median fluorescence intensity)”: median about 8.6, highest 2% from about 10 on). The full list was thinned out, with the highest values kept by preference.
Give the figure only, with no unit attached.

- Sequence Data: "CCTAAAGTGTAAAATTCACACACATATATATATATA [CACACA_site8385]"
  Target Entity: "PfAP2-EXP AP2 domain (GST-tagged)"
  gcPBM binding intensity (ln): 10.2
- Sequence Data: "TGAACAGACGAGCACACACACACATATATATATATA [CACACA_site1019]"
  Target Entity: "PfAP2-EXP AP2 domain (GST-tagged)"
  gcPBM binding intensity (ln): 10.2
- Sequence Data: "TAAAAATTAAAGTGTACACATATATATATATATATA [CACACA_site4781]"
  Target Entity: "PfAP2-EXP AP2 domain (GST-tagged)"
  gcPBM binding intensity (ln): 10.2

Retrieve gcPBM binding intensity (ln) measured for AACAGACAGAAACACACACACATATATATATATATA [CACACA_site3394] and print it. 10

Retrieve gcPBM binding intensity (ln) measured for TAAATTAATAAAAAGTGTACATAATATACATATATA [XGTACX_site8604] and print it. 8.62

Retrieve gcPBM binding intensity (ln) measured for CATACAGACGAACACACACACATATAAATATAAATA [CACACA_site6443] and print it. 8.74

Retrieve gcPBM binding intensity (ln) measured for AATGAACAGACGAGCACACACACACCCATATATATA [CACACA_site1018] and print it. 8.85

Retrieve gcPBM binding intensity (ln) measured for AAAACAAACGGACACACACACATATATATATATATA [CACACA_site5924] and print it. 10.1

Retrieve gcPBM binding intensity (ln) measured for GTAAGAAACGGACACACACACATATATATATATATA [CACACA_site4593] and print it. 10.2

====

System: PfAP2-EXP AP2 domain (GST-tagged)
Test Summary: gcPBM binding intensity (ln(normalized median fluorescence intensity)); higher = stronger DNA binding
Whole data set: some 25,000 sequences, median “ln(normalized median fluorescence intensity)” near 8.6, cut for the highest 2% near 10. Shown is part of a subset that was picked to be rich in the highest values.
Mark y for reported gcPBM binding intensity (ln) of 9 or greater; mark n for anything smaller.

State whether the measured gcPBM binding intensity (ln) reaches 9, counting equality as reaching it, for TATATATATATATGTTGTACATATTTAAATGTTTAT [XGTACX_site5437] y

State whether the measured gcPBM binding intensity (ln) reaches 9, counting equality as reaching it, for ATATATATATATAAATGTACAGATATATTTTTTATT [XGTACX_site5445] y

====

Test system: PfAP2-EXP AP2 domain (GST-tagged)
Test Summary: gcPBM binding intensity (ln(normalized median fluorescence intensity)); higher = stronger DNA binding
Over roughly 25,000 sequences, “ln(normalized median fluorescence intensity)” has its median near 8.6; the highest 2% begin near 10. The entries come from a sample that favours the highest values as a whole.
Examples of sequences with documented gcPBM binding intensity (ln) follow.

Worked cases, answers included:
- Sequence Data: "AATTATTTACCCTATACACACAAAACACGCTAAAAA [CACACA_site1211]"
  Target Entity: "PfAP2-EXP AP2 domain (GST-tagged)"
  gcPBM binding intensity (ln): 8.79
- Sequence Data: "TTTTTCAGAAAAGAAACACACATATAAATATTTATA [CACACA_site7170]"
  Target Entity: "PfAP2-EXP AP2 domain (GST-tagged)"
  gcPBM binding intensity (ln): 8.47
- Sequence Data: "CACAGACACCCATACACACACATACCCATATATATA [CACACA_site5023]"
  Target Entity: "PfAP2-EXP AP2 domain (GST-tagged)"
  gcPBM binding intensity (ln): 8.79

Retrieve gcPBM binding intensity (ln) measured for ATATGTTATATAAATATATATATATATATATATATA [TGCATGCA_negctrl_site594] and print it. 10.1

Retrieve gcPBM binding intensity (ln) measured for AATATGTTATAAATATGTTATAAATAATAAATAAAT [GTGCAC_negctrl_site135] and print it. 8.45

Retrieve gcPBM binding intensity (ln) measured for CATACACCCAGACACACACACATATATATATATATA [CACACA_site634] and print it. 10.1

Retrieve gcPBM binding intensity (ln) measured for TTCCCCCCCAGACACACACACACATACATACCACAT [CACACA_site2305] and print it. 10.5

Retrieve gcPBM binding intensity (ln) measured for TACAGACATACATACACACATACATACAGACATACA [CACACA_site1941] and print it. 8.66

Retrieve gcPBM binding intensity (ln) measured for CACCCCCACAGACACACACACACACCCACATATATA [CACACA_site365] and print it. 9.27
